Provide the recorded GI50 for the entries that follow.
- System: PC-3
- Measurement Description: NCI tumour cell line growth inhibition, 48 h
Activity calls are given as the source filed them. Rule as the data show it: active = GI50 up to about 1.1 µM and inactive = higher.

Answer with reported GI50 of `Clc1nc(Nc2nc3ccccc3[nH]2)nc(Cl)c1-c1ccccc1`
23 µM (inactive)

Answer with reported GI50 of `C[C@H]1C2Cc3cc(N)ccc3[C@@]1(C)CCN2CCc1ccccc1`
22.6 µM (inactive)

Answer with reported GI50 of Cc1ccc(S(=O)(=O)N(CC(O)COc2ccccc2)c2c(F)cccc2F)cc1 (stereo not given)
14.3 µM (inactive)

Answer with reported GI50 of CN(C)C12C=CC=CC3=C(c4ccccc4)C(c4ccccc4)=C(c4ccccc4)C31c1ccccc1C2 (stereo not given)
> 100 µM (inactive)

Answer with reported GI50 of C=CCCC(On1c(-c2ccc(Cl)cc2)csc1=S)c1ccccc1 (stereo not given)
27.3 µM (inactive)

Answer with reported GI50 of Cc1cccc(C)c1NC(=O)C(Cc1c[nH]c2ccccc12)NC(=O)OCc1ccccc1 (stereo not given)
12.3 µM (inactive)

Answer with reported GI50 of `O=C(NCP(=O)(O)O)c1cccnc1`
> 100 µM (inactive)

Answer with reported GI50 of `CCNCCNc1c2ccccc2nc2ccccc12`
0.828 µM (active)

Answer with reported GI50 of `COC(=O)CCC(=O)NC1=C(NCc2ccccc2)C(=O)c2ccccc2C1=O`
25.2 µM (inactive)

Answer with reported GI50 of `CCSc1n/c(=C\c2ccc(N(C)C)cc2)c2nnnn12`
> 100 µM (inactive)

====

- Test system: M19-MEL
- Measurement Description: NCI tumour cell line growth inhibition, 48 h
Active and inactive are the calls of the source. Cut-off read from the data, not from the text of the source: active = GI50 up to about 1.1 µM and inactive = higher.
Measure: GI50

With M19-MEL as the test system, provide measured GI50 for this molecule: `O=C(O)Cn1c(=O)[nH]c(=O)c2[nH]cnc21`
> 100 µM (inactive)

With M19-MEL as the test system, provide measured GI50 for this molecule: `O=C(c1ccccn1)c1nc(-c2ccc(Cl)c(Cl)c2)nc2ccc(Cl)cc12`
81.1 µM (inactive)

With M19-MEL as the test system, provide measured GI50 for this molecule: COc1cc2c(cc1OC)C(C(=O)c1cccc(OC)c1OC)C(=O)N(C)CC2 (configuration not stated)
> 100 µM (inactive)

With M19-MEL as the test system, provide measured GI50 for this molecule: `CCOC(=O)CCn1ncc(Cl)c(Cl)c1=O`
2.58 µM (inactive)

With M19-MEL as the test system, provide measured GI50 for this molecule: `COc1nc(/C=N/NC(N)=S)nc(OC)n1`
65.3 µM (inactive)

With M19-MEL as the test system, provide measured GI50 for this molecule: O=C(NC12CC3CCC1CC(C3)C2)[C@@H]1CCCN1C(=O)OCc1ccccc1 (some centres not stated)
83.6 µM (inactive)

With M19-MEL as the test system, provide measured GI50 for this molecule: `CNS(=O)(=O)NNS(=O)(=O)c1ccc(Br)cc1`
> 100 µM (inactive)

With M19-MEL as the test system, provide measured GI50 for this molecule: `COc1ccc(OC)c2[s+]snc12`
15.8 µM (inactive)

With M19-MEL as the test system, provide measured GI50 for this molecule: `COc1ccc(/C(Cl)=C(\CN(C)C)c2ccc(OC)c(OC)c2)cc1OC`
> 100 µM (inactive)

With M19-MEL as the test system, provide measured GI50 for this molecule: CC(C)/C=C1\CCC(CN(C)C)C1=O (configuration not stated)
9.27 µM (inactive)

With M19-MEL as the test system, provide measured GI50 for this molecule: `O=c1cc(-c2ccccc2)oc2cc(OCCSCCCCCCCCCCSCCOc3ccc4c(=O)cc(-c5ccccc5)oc4c3)ccc12`
> 100 µM (inactive)

With M19-MEL as the test system, provide measured GI50 for this molecule: `CCCCCC(=O)Cc1cc(OC)cc2c1C(=O)Oc1cc(O)c(C(=O)O)c(CC(=O)CCCCC)c1O2`
26.2 µM (inactive)

Source: ChEMBL document CHEMBL1201862
